Experiment: Lipophilicity, log P of the compound
Type: physicochemical
Settings: octanol/water
propertyLabel: logP

smilesNotation: Cc1cc(O)cc(C)c1C[C@H](N)C(=O)N[C@@H]1CCNc2ccc(Cc3ccccc3)cc21.O=C(O)C(F)(F)F
propertyLabel: logP
measured: 3.8

smilesNotation: Cc1cc(O)cc(C)c1C[C@H](N)C(=O)N[C@@H]1CCNc2ccc(Cc3cc4ccccc4o3)cc21.O=C(O)C(F)(F)F
propertyLabel: logP
measured: 4.3

smilesNotation: CC(=O)N1CC[C@@H](NC(=O)[C@@H](N)Cc2c(C)cc(O)cc2C)c2cc(Cc3ccc4c(c3)OCCO4)ccc21.O=C(O)C(F)(F)F
propertyLabel: logP
measured: 3.1

smilesNotation: Cc1cc(O)cc(C)c1C[C@H](N)C(=O)N[C@@H]1CCN(C(=O)C2CC2)c2ccc(Cc3cnc4ccccc4c3)cc21.O=C(O)C(F)(F)F
propertyLabel: logP
measured: 3.8

smilesNotation: Cc1cc(O)cc(C)c1C[C@H](N)C(=O)N[C@@H]1CCN(C(=O)C2CC2)c2ccc(CN3CCc4ccccc4C3)cc21.O=C(O)C(F)(F)F
propertyLabel: logP
measured: 3.8

smilesNotation: Cc1cc(O)cc(C)c1C[C@H](N)C(=O)N[C@@H]1CCN(S(C)(=O)=O)c2ccc(Cc3ccc4c(c3)OCCO4)cc21.O=C(O)C(F)(F)F
propertyLabel: logP
measured: 3

smilesNotation: Cc1cc(O)cc(C)c1C[C@H](N)C(=O)N[C@@H]1CCN(C(=O)c2ccccc2)c2ccc(Cc3ccccc3)cc21
propertyLabel: logP
measured: 4.6
